Target: histamine receptor H1 (Homo sapiens)
Sequence (P35367 whole entry): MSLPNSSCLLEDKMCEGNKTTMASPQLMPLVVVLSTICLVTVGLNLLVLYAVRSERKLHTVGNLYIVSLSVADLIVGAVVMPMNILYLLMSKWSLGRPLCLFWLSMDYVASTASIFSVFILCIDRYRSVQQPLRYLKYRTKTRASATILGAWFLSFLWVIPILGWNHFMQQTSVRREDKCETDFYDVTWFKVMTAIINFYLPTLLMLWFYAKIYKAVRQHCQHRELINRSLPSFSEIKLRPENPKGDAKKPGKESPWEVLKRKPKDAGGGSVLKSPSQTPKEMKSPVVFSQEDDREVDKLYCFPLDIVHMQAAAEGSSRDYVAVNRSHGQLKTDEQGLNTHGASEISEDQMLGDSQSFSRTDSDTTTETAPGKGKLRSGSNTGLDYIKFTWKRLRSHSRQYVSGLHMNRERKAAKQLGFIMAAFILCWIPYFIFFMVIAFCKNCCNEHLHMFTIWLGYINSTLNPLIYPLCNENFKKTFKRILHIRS
Test: Histamine H1 radioligand binding ([3H]Pyrilamine)
Settings: read-out: Histamine Binding (1 μM) H1, percent inhibition of specific binding, 1 μM
compounds and their reported inhibition at 1 µM
Report only the number, with the unit % understood.

Compound: Cc1ccc(C#Cn2c3c(c4cc(Cl)ccc42)CN(C)CC3)cn1
inhibition at 1 µM / %: 6
--
Compound: CCC/C=C(/Cn1c2c(c3cc(Cl)ccc31)CN(C)CC2)c1ccc(F)cc1
inhibition at 1 µM / %: 78
--
Compound: Cc1ccc2c(c1)c1c(n2CC(C)(O)c2ccncc2)CC(C)N(C)C1 (stereo not shown)
inhibition at 1 µM / %: 56
--
Compound: C/C(=C\n1c2c(c3cc(Cl)ccc31)CN(C)CC2)c1cnc(C)cn1
inhibition at 1 µM / %: 68
--
Compound: C/C(=C\n1c2c(c3ccccc31)CN(C)CC2)c1ccc(C)nc1
inhibition at 1 µM / %: 7
--
Compound: C=C(Cn1c2c(c3cccc(F)c31)CN(C)CC2)c1ccncc1
inhibition at 1 µM / %: 62
--
Compound: C=C(Cn1c2c(c3cc(Cl)ccc31)CN(C)CC2)c1ccc(F)cc1
inhibition at 1 µM / %: 98
--
Compound: Cc1ccc2c(c1)c1c(n2C#Cc2ccc(F)cc2)CCN(C)C1
inhibition at 1 µM / %: 28
--
Compound: CCOC(=O)/C=C(/Cn1c2c(c3cc(C)ccc31)CN(C)CC2)c1ccc(F)cc1
inhibition at 1 µM / %: 27
--
Compound: C/C(=C/n1c2c(c3cc(Cl)ccc31)CN(C)CC2)c1ccc(Cl)c(Cl)c1
inhibition at 1 µM / %: 92

GET /values?readout=inhibition at 1 µM&item= C/C(=C\n1c2c(c3cc(C)ccc31)CN(C)CC2)c1cc(F)c(O)c(F)c1
18

GET /values?readout=inhibition at 1 µM&item= CNC(=O)c1ccc(C#Cn2c3c(c4cc(C)ccc42)CN(C)CC3)cc1F
9

GET /values?readout=inhibition at 1 µM&item= CNC(=O)c1ccc(/C(C)=C/n2c3c(c4cc(C)ccc42)CN(C)CC3)cc1
11
